B1: Caulobacter ParB omega fusion; a variant is named by its letters at X, in order, B8GW30 (parent)
chain: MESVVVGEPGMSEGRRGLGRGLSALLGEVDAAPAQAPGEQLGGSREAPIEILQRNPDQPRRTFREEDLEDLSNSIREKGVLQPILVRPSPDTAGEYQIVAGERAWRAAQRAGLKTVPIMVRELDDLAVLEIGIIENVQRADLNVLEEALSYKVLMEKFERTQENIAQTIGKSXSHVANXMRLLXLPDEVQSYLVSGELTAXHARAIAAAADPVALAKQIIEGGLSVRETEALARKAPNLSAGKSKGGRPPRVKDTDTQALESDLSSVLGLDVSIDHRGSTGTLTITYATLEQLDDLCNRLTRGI

- Variants of: B1
- Assay explanation: one-hybrid fitness for binding parS DNA (scaled: cognate 1, non-cognate 0); higher = stronger binding
- Conditions used: with parS DNA site
Over roughly 81,000 sequences, “one-hybrid fitness for binding parS DNA” has its median near -0.17; the highest 2% begin near 0.51. This is one part of a sample in which the highest values are shown more often than they occur.
Classify by measured one-hybrid fitness for binding parS DNA: T if it is equal to or exceeds 0.9, F if it is smaller.

Look over these answered cases.
SYAS
F
RYHQ
F
PHIN
F
MSNM
F
IEKT
F
CLLK
F

Ask | Can `ANKV` be said to have one-hybrid fitness for binding parS DNA at or above 0.9?
Reply | F

Ask | Can `CHLC` be said to have one-hybrid fitness for binding parS DNA at or above 0.9?
Reply | F

Ask | Can `RYHG` be said to have one-hybrid fitness for binding parS DNA at or above 0.9?
Reply | T

Ask | Can `RVMC` be said to have one-hybrid fitness for binding parS DNA at or above 0.9?
Reply | T

Ask | Can `RKKS` be said to have one-hybrid fitness for binding parS DNA at or above 0.9?
Reply | F

Ask | Can `RYQM` be said to have one-hybrid fitness for binding parS DNA at or above 0.9?
Reply | F

Ask | Can `RYHK` be said to have one-hybrid fitness for binding parS DNA at or above 0.9?
Reply | F

Ask | Can `RRFQ` be said to have one-hybrid fitness for binding parS DNA at or above 0.9?
Reply | F

Ask | Can `RSLM` be said to have one-hybrid fitness for binding parS DNA at or above 0.9?
Reply | F

Ask | Can `RMAN` be said to have one-hybrid fitness for binding parS DNA at or above 0.9?
Reply | F

Ask | Can `RMFS` be said to have one-hybrid fitness for binding parS DNA at or above 0.9?
Reply | T

Ask | Can `RYNK` be said to have one-hybrid fitness for binding parS DNA at or above 0.9?
Reply | F

Ask | Can `RRFK` be said to have one-hybrid fitness for binding parS DNA at or above 0.9?
Reply | F

Ask | Can `RYYN` be said to have one-hybrid fitness for binding parS DNA at or above 0.9?
Reply | F

Ask | Can `APLY` be said to have one-hybrid fitness for binding parS DNA at or above 0.9?
Reply | F

Ask | Can `NFTC` be said to have one-hybrid fitness for binding parS DNA at or above 0.9?
Reply | F

Ask | Can `RYNG` be said to have one-hybrid fitness for binding parS DNA at or above 0.9?
Reply | T

Ask | Can `RYCD` be said to have one-hybrid fitness for binding parS DNA at or above 0.9?
Reply | F

Ask | Can `RRAQ` be said to have one-hybrid fitness for binding parS DNA at or above 0.9?
Reply | F

Ask | Can `RVMH` be said to have one-hybrid fitness for binding parS DNA at or above 0.9?
Reply | F

Ask | Can `YEEE` be said to have one-hybrid fitness for binding parS DNA at or above 0.9?
Reply | F

Ask | Can `RYYH` be said to have one-hybrid fitness for binding parS DNA at or above 0.9?
Reply | F

Ask | Can `PVIC` be said to have one-hybrid fitness for binding parS DNA at or above 0.9?
Reply | F

Ask | Can `RYNY` be said to have one-hybrid fitness for binding parS DNA at or above 0.9?
Reply | F
